- ASSAYED TARGET: LK35.2-hPD-L1 cells / PE-labeled PD-1-Ig (Homo sapiens, UniProt Q9NZQ7)
- Construct: expressed in transfected cells; host or cells: LK35.2 mouse B cell line
- Sequence (Q9NZQ7 19-290): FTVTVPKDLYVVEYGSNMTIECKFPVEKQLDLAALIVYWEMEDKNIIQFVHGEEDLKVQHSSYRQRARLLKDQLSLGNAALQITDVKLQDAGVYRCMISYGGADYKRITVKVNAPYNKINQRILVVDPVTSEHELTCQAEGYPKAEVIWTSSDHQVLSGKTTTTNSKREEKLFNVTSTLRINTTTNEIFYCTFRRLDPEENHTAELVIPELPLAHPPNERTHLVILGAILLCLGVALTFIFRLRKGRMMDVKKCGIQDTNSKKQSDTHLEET
- RUN DESCRIPTION: LK35.2-hPD-L1 cell binding high-content screening assay
- Assay type: cell-based
- CONDITION DESCRIPTION: cell binding assay, cell line not given; cluster symbol; read-out: CBA IC50 cluster
Positions of bridges follow the written chain, without caps; N, C: chain ends. Non-standard residues stand in square brackets, D forms with d. Residues, ends and D or L forms follow the SMILES beside them. NMeF = CN[C@@H](Cc1ccccc1)C(=O)O; NMeNle = CCCC[C@H](NC)C(=O)O; dPip = O=C(O)[C@H]1CCCCN1; Sar = CNCC(=O)O
ASSAY METRIC: IC50

>>> reported_result("CCCC[C@H]1C(=O)N2CCCC[C@@H]2C(=O)N[C@@H](CC(=O)O)C(=O)N[C@@H](C(C)C)C(=O)N(C)[C@@H](Cc2ccccc2)C(=O)N[C@@H](Cc2ccc(O)cc2)C(=O)N(C)CC(=O)N[C@@H](Cc2c[nH]c3ccccc23)C(=O)N[C@@H](Cc2ccc(O)cc2)C(=O)N[C@@H](CC(C)C)C(=O)N[C@H](C(=O)NCC(N)=O)CSCC(=O)N[C@@H](Cc2ccccc2)C(=O)N(C)[C@@H](Cc2ccccc2)C(=O)N1C [Example 3573] ({CH2CO}-F[NMeF][NMeNle][dPip]DV[NMeF]Y[Sar]WYLCG-NH2; thioether N-13)")
"4.78 to 72.9 nM"

API: the following record is the query input.
QUERY: # query: IC50 of entry CCCC[C@H]1C(=O)N(C)[C@@H](CCSC)C(=O)N[C@@H](C)C(=O)NC(C(=O)NCC(N)=O)CSCC(=O)N[C@@H](Cc2ccc(O)cc2)C(=O)N(C)[C@@H](C)C(=O)N[C@@H](CC(N)=O)C(=O)N2CCC[C@H]2C(=O)N[C@@H](CN)C(=O)N[C@@H](CC(C)C)C(=O)N2C[C@H](O)C[C@H]2C(=O)N[C@@H](Cc2c[nH]c3ccccc23)C(=O)N[C@@H](CO)C(=O)N[C@@H](Cc2c[nH]c3ccccc23)C(=O)N1C (some centres unmarked)
RESULT: 0.158 to 4.71 nM
